Assay: qHTS assay to identify small molecule agonists of the AP-1 signaling pathway (AID 1159526); note: % is set by controls: 0 for no effect and ±100 for the full control effect
Details: ME-180 (cervical carcinoma) AP-1-bla reporter, beta-lactamase FRET ratio, 5 h; series mostly up to 76.8 µM
Records with an inconclusive call do not appear. Calls of active or inactive are those of the source. Calls come from the whole dose curve.
Reported Property: activation

[
  {
    "Compound": "CC(=O)C1C(=O)C=C(C)OC1=O (centres undefined)",
    "Reported Property": "activation",
    "Recorded Value": "inactive"
  },
  {
    "Compound": "CCOc1ccccc1OCC1CNCCO1 (centres undefined)",
    "Reported Property": "activation",
    "Recorded Value": "inactive"
  },
  {
    "Compound": "CN(C)CCCO[C@@H]1[C@H]2OC(C)(C)O[C@H]2O[C@@H]1C(O)CO (some centres undefined)",
    "Reported Property": "activation",
    "Recorded Value": "inactive"
  },
  {
    "Compound": "[O]=[Mo](=[O])=[O]",
    "Reported Property": "activation",
    "Recorded Value": "-20.6% [at 15.8 µM] (inactive)"
  },
  {
    "Compound": "O=C1c2ccccc2C(=O)c2cc(Cl)ccc21",
    "Reported Property": "activation",
    "Recorded Value": "-9.9% [at 6.97 µM] (inactive)"
  },
  {
    "Compound": "C=CCCCCCCCC",
    "Reported Property": "activation",
    "Recorded Value": "inactive"
  },
  {
    "Compound": "CCc1occc(=O)c1O",
    "Reported Property": "activation",
    "Recorded Value": "inactive"
  },
  {
    "Compound": "Cc1cc(-c2ccccc2)nnc1NCCN1CCOCC1",
    "Reported Property": "activation",
    "Recorded Value": "inactive"
  },
  {
    "Compound": "Cc1ccc(C(=O)O)cc1[N+](=O)[O-]",
    "Reported Property": "activation",
    "Recorded Value": "inactive"
  },
  {
    "Compound": "COS(=O)(=O)O",
    "Reported Property": "activation",
    "Recorded Value": "inactive"
  },
  {
    "Compound": "CCn1cc(C(=O)O)c(=O)c2cnc(N3CCCC3)nc21",
    "Reported Property": "activation",
    "Recorded Value": "-6.77% [at 6.97 µM] (inactive)"
  },
  {
    "Compound": "CCCCCC/C=C/C(=O)OC",
    "Reported Property": "activation",
    "Recorded Value": "inactive"
  },
  {
    "Compound": "CC1c2ccccc2CN1NC(=O)c1ccc(Cl)c(S(N)(=O)=O)c1 (centres undefined)",
    "Reported Property": "activation",
    "Recorded Value": "inactive"
  },
  {
    "Compound": "O=C(O)c1cc2ccccc2nc1C(=O)O",
    "Reported Property": "activation",
    "Recorded Value": "inactive"
  }
]

###

Biological target: Androgen receptor (Homo sapiens) (UniProt P10275)
Sequence (P10275 whole entry, looked up): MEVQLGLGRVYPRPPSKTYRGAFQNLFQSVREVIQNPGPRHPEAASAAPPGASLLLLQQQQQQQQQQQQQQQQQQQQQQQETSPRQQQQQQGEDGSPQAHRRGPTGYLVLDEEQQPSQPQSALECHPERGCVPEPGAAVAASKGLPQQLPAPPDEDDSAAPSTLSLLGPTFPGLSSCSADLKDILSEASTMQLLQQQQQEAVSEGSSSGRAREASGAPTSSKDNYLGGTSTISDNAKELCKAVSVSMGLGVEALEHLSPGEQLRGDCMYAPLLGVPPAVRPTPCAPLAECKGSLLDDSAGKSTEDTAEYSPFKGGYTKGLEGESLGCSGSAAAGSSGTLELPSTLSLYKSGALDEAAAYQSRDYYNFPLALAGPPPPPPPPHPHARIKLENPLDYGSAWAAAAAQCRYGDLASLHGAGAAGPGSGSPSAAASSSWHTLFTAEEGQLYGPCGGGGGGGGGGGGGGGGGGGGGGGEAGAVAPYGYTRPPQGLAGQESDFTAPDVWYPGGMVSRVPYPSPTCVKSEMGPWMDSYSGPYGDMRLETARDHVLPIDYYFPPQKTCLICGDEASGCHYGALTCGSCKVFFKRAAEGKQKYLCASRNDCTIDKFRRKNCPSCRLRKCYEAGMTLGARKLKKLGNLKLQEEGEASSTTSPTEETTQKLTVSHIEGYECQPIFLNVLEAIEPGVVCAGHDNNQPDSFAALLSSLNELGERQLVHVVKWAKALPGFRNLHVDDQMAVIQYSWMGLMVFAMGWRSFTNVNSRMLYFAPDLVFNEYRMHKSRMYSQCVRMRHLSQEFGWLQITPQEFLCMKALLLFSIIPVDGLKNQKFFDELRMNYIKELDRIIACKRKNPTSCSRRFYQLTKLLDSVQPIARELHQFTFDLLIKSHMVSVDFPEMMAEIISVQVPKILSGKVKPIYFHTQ
Assay: qHTS assay to identify small molecule agonists of the androgen receptor (AR) signaling pathway in the presence of an antagonist (AID 1259381); note: % is set by controls: 0 for no effect and ±100 for the full control effect; nearly all actives have a fitted effect of over 15% in size
Conditions: MDA-kb2 MMTV-luciferase, AR agonist + nilutamide, 16 h; series mostly up to 92.4 µM
Active and inactive are the calls of the source. Calls follow the shape of the full dose curve.

[
  {
    "Compound": "O=C1NC(c2ccccc2)(c2ccccc2)C(=O)N1COP(=O)(O)O",
    "Experimental System": "Androgen receptor (Homo sapiens) (UniProt P10275)",
    "activation": "inactive"
  },
  {
    "Compound": "C#CCN[C@@H]1CCc2ccccc21",
    "Experimental System": "Androgen receptor (Homo sapiens) (UniProt P10275)",
    "activation": "inactive"
  },
  {
    "Compound": "OCC1CCC(CO)CC1 (configuration not stated)",
    "Experimental System": "Androgen receptor (Homo sapiens) (UniProt P10275)",
    "activation": "inactive"
  },
  {
    "Compound": "CC(S)C(C)S (configuration not stated)",
    "Experimental System": "Androgen receptor (Homo sapiens) (UniProt P10275)",
    "activation": "inactive"
  },
  {
    "Compound": "O=C(Cl)c1ccccc1[N+](=O)[O-]",
    "Experimental System": "Androgen receptor (Homo sapiens) (UniProt P10275)",
    "activation": "inactive"
  },
  {
    "Compound": "CC(C)C1OCCN1CCOC(=O)NCCCCCCNC(=O)OCCN1CCOC1C(C)C (configuration not stated)",
    "Experimental System": "Androgen receptor (Homo sapiens) (UniProt P10275)",
    "activation": "inactive"
  },
  {
    "Compound": "CC(=O)O[C@H]1C[C@@H]2CC[C@@]1(C)C2(C)C",
    "Experimental System": "Androgen receptor (Homo sapiens) (UniProt P10275)",
    "activation": "inactive"
  }
]

###

Assay: qHTS assay to identify small molecule antagonists of the estrogen receptor alpha (ER-alpha) signaling pathway - cell viability counter screen (AID 743074);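 note: HEK293 cells carrying ER-alpha-UAS-bla reporter stimulated with 17beta-estradiol; % is set by controls: 0 for no effect and ±100 for the full control effect; nearly all actives have a fitted effect of over 45% in size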
Conditions: ERalpha-bla HEK293 viability, CellTiter-Glo luminescence, 18 h; series mostly up to 69.4 µM
Records with an inconclusive call do not appear. Activity calls are given as the source filed them. Calls come from the whole dose curve.
Reported Property: activity, negative = cytotoxicity

[
  {
    "Molecule": "O=C(O)CSCC(=O)NC1CCSC1=O (stereo not drawn)",
    "Recorded Value": "inactive"
  },
  {
    "Molecule": "C[Si]1(C)O[Si](C)(C)O[Si](C)(C)O[Si](C)(C)O[Si](C)(C)O1",
    "Recorded Value": "inactive"
  },
  {
    "Molecule": "CCCC(CC)c1ccccc1 (stereo not drawn)",
    "Recorded Value": "inactive"
  },
  {
    "Molecule": "CC1=C(O)C(=O)C(C)O1 (stereo not drawn)",
    "Recorded Value": "inactive"
  },
  {
    "Molecule": "COc1ccc2c(c1)c1c3n2CCN(C)C3=NCC1",
    "Recorded Value": "inactive"
  },
  {
    "Molecule": "CCC/C=C(\\C=O)CC",
    "Recorded Value": "inactive"
  },
  {
    "Molecule": "C[C@]12CCC(=O)C=C1CC[C@H]1[C@@H]3CC[C@](O)(C(=O)CO)[C@@]3(C)C[C@H](O)[C@@]12F",
    "Recorded Value": "inactive"
  },
  {
    "Molecule": "NCc1ccc(S(N)(=O)=O)cc1",
    "Recorded Value": "inactive"
  },
  {
    "Molecule": "Cn1c(=O)c2c(ncn2CCO)n(C)c1=O",
    "Recorded Value": "inactive"
  },
  {
    "Molecule": "COC(=O)c1cccc(Cl)c1",
    "Recorded Value": "inactive"
  },
  {
    "Molecule": "CC(=O)OCC(=O)Nc1cc(C#N)cc(NC(=O)COC(C)=O)c1Cl",
    "Recorded Value": "inactive"
  },
  {
    "Molecule": "[O]=[Mo](=[O])=[O]",
    "Recorded Value": "inactive"
  },
  {
    "Molecule": "CCCCCc1cccc(=O)o1",
    "Recorded Value": "inactive"
  }
]

###

Assay: A CellTox Green Cytotoxicity Assay to monitor cytotoxicity in HepG2 cells - 40 hour (AID 1224879); note: % is set by controls: 0 for no effect and ±100 for the full control effect; nearly all actives have a fitted effect of over 40% in size
Conditions: CellTox Green fluorescence; series mostly up to 76.8 µM
Inconclusive results are not listed. Calls of active or inactive are those of the source. The call rests on the fitted dose curve; in most records, active means well fitted activation curve with a large enough effect in the repeat runs; inconclusive means weak or mixed curves; inactive means flat fitted curve, though single readings scatter.

[
  {
    "Molecule": "COc1cc(OC)nc(O[C@H](C(=O)O)C(OC)(c2ccccc2)c2ccccc2)n1",
    "cytotoxicity increase": "inactive"
  },
  {
    "Molecule": "N#Cc1ccccc1O",
    "cytotoxicity increase": "inactive"
  },
  {
    "Molecule": "CCn1cc(C(=O)O)c(=O)c2cnc(N3CCCC3)nc21",
    "cytotoxicity increase": "2.25% [at 6.97 µM] (inactive)"
  },
  {
    "Molecule": "CC(=O)O[C@@H]1CC2CCC1(C)C2(C)C (stereo partly specified)",
    "cytotoxicity increase": "inactive"
  },
  {
    "Molecule": "CC(=O)c1cc(C)oc1C",
    "cytotoxicity increase": "inactive"
  },
  {
    "Molecule": "CCCCOCC(C)O (stereo unspecified)",
    "cytotoxicity increase": "inactive"
  },
  {
    "Molecule": "C=CCCCCCCCC",
    "cytotoxicity increase": "inactive"
  },
  {
    "Molecule": "C=CCCCC",
    "cytotoxicity increase": "inactive"
  },
  {
    "Molecule": "Cc1cc(C)c(C(=O)O)c(C)c1",
    "cytotoxicity increase": "inactive"
  },
  {
    "Molecule": "COC(=O)c1cccc(Cl)c1",
    "cytotoxicity increase": "inactive"
  },
  {
    "Molecule": "CCCSSCCC",
    "cytotoxicity increase": "inactive"
  },
  {
    "Molecule": "O=C(O)CNC(=O)CNC(=O)CNC(=O)CSC(=O)c1ccccc1",
    "cytotoxicity increase": "inactive"
  },
  {
    "Molecule": "CCCCCCCCCCOC(C)=O",
    "cytotoxicity increase": "inactive"
  },
  {
    "Molecule": "OCC(O)CN1CCN(c2ccccc2)CC1 (stereo unspecified)",
    "cytotoxicity increase": "inactive"
  },
  {
    "Molecule": "Cc1ccnc(N)c1",
    "cytotoxicity increase": "inactive"
  },
  {
    "Molecule": "CN1CCOC(c2ccccc2)c2ccccc2C1 (stereo unspecified)",
    "cytotoxicity increase": "inactive"
  }
]
